# Measurement protocol: Hemolytic activity in sheep red blood cell assessed as hemolysis at 1 to 128 ug/ml incubated for 1 hrs relative to control
# Assay type: toxicity, cell-based, Ovis aries, Erythrocyte
# Condition summary: sheep red blood cells (erythrocytes), at 1 to 128 µg/mL, dose 1-128 µg/ml, read-out: Activity
Where a SMILES comes first, the peptide text is derived from it. [ ]: non-standard residue; d: D form. The star is where a group is joined. ξ: configuration not given here. Octanoyl(7-Me) = CC(C)CCCCCC(=O)*; Hexanoyl(4ξ-Me) = CCC(C)CCC(=O)*; dOrn = NCCC[C@@H](N)C(=O)O; Orn = NCCC[C@H](N)C(=O)O; Dap = NC[C@H](N)C(=O)O; Alloc = C=CCOC(=O)*
What hemolysis at 1 h was measured for each of the following?

CCC(C)CCC(=O)N[C@H](CC(N)=O)C(=O)N[C@H](Cc1ccc(O)cc1)C(=O)N[C@H](Cc1c[nH]c2ccccc12)C(=O)N[C@H](CCCN)C(=O)N[C@@H](CCCN)C(=O)NCC(=O)N[C@H](CCCN)C(=O)N[C@@H](Cc1c[nH]c2ccccc12)C(=O)N[C@H](C(=O)N[C@H](C(=O)NCC(=O)N[C@@H](CO)C(=O)O)[C@@H](C)CC)[C@@H](C)O (stereo partly specified) ({Hexanoyl(4ξ-Me)}-[dN][dY][dW][dOrn][Orn]G[dOrn]WTIGS-OH) yielded hemolysis at 1 h of < 0.1%

Reported hemolysis at 1 h for CC[C@H](C)[C@H](NC(=O)[C@H](Cc1ccccc1)NC(=O)[C@H](Cc1c[nH]c2ccccc12)NC(=O)[C@@H](CCCN)NC(=O)CNC(=O)[C@H](CCCN)NC(=O)[C@@H](CCCN)NC(=O)[C@@H](Cc1c[nH]c2ccccc12)NC(=O)[C@@H](Cc1ccc(O)cc1)NC(=O)[C@@H](CO)NC(=O)CCCCCC(C)C)C(=O)N[C@@H](CC(N)=O)C(=O)NCC(=O)NCC(N)=O ({Octanoyl(7-Me)}-[dS][dY][dW][dOrn][Orn]G[dOrn]WFINGG-NH2) was 0.6%

// hemolysis at 1 h lookup, compound = C=CCOC(=O)NC[C@H](NC(=O)[C@H](Cc1c[nH]c2ccccc12)NC(=O)[C@@H](CCCN)NC(=O)CNC(=O)[C@H](CCCN)NC(=O)[C@@H](CCCN)NC(=O)[C@@H](Cc1c[nH]c2ccccc12)NC(=O)[C@@H](Cc1ccc(O)cc1)NC(=O)[C@@H](CO)NC(=O)CCCCCC(C)C)C(=O)N[C@H](C(=O)N[C@@H](CC(N)=O)C(=O)NCC(=O)NCC(N)=O)[C@@H](C)CC ({Octanoyl(7-Me)}-[dS][dY][dW][dOrn][Orn]G[dOrn]W[Dap](Alloc)INGG-NH2) , result: < 0.1%

CC[C@H](C)[C@H](NC(=O)[C@@H](NC(=O)[C@H](Cc1c[nH]c2ccccc12)NC(=O)[C@@H](CCCN)NC(=O)CNC(=O)[C@H](CCCN)NC(=O)[C@@H](CCCN)NC(=O)[C@@H](Cc1c[nH]c2ccccc12)NC(=O)[C@@H](Cc1ccc(O)cc1)NC(=O)[C@@H](CO)NC(=O)CCCCCC(C)C)[C@@H](C)O)C(=O)N[C@@H](CC(N)=O)C(=O)NCC(=O)NCC(N)=O ({Octanoyl(7-Me)}-[dS][dY][dW][dOrn][Orn]G[dOrn]WTINGG-NH2) has a reported hemolysis at 1 h of < 0.1%

Field hemolysis at 1 h (entry CC[C@H](C)[C@H](NC(=O)[C@@H](NC(=O)[C@H](Cc1c[nH]c2ccccc12)NC(=O)[C@@H](CCCN)NC(=O)CNC(=O)[C@H](CCCN)NC(=O)[C@@H](CCCN)NC(=O)[C@@H](Cc1c[nH]c2ccccc12)NC(=O)[C@@H](Cc1ccc(O)cc1)NC(=O)[C@@H](CO)NC(=O)CCCCCC(C)C)[C@@H](C)O)C(=O)N[C@@H](CC(N)=O)C(=O)NCC(=O)NCC(=O)O ({Octanoyl(7-Me)}-[dS][dY][dW][dOrn][Orn]G[dOrn]WTINGG-OH) ) reads < 0.1%

The compound CCC(C)CCC(=O)N[C@H](CC(N)=O)C(=O)N[C@H](Cc1ccc(O)cc1)C(=O)N[C@H](Cc1c[nH]c2ccccc12)C(=O)N[C@H](CCCN)C(=O)N[C@@H](CCCN)C(=O)NCC(=O)N[C@H](CCCN)C(=O)N[C@@H](Cc1c[nH]c2ccccc12)C(=O)N[C@H](C(=O)N[C@H](C(=O)NCC(=O)N[C@@H](CO)C(N)=O)[C@@H](C)CC)[C@@H](C)O (stereo partly specified) ({Hexanoyl(4ξ-Me)}-[dN][dY][dW][dOrn][Orn]G[dOrn]WTIGS-NH2) showed hemolysis at 1 h equal to < 0.1%

* * *

Hi there, I'd appreciate the recorded MIC for every entry that follows.
# Test system: Staphylococcus aureus
# Measurement protocol: Antibacterial activity Staphylococcus aureus USA300 assessed as inhibition of visible bacterial growth incubated for 18 hrs by microbroth dilution assay
# Type: functional
Where a SMILES comes first, the peptide text is derived from it. [ ]: non-standard residue; d: D form. The star is where a group is joined. ξ: configuration not given here. Hexanoyl(4ξ-Me) = CCC(C)CCC(=O)*; dOrn = NCCC[C@@H](N)C(=O)O; Orn = NCCC[C@H](N)C(=O)O

MIC in this record for CCC(C)CCC(=O)N[C@H](CC(N)=O)C(=O)N[C@H](Cc1ccc(O)cc1)C(=O)N[C@H](Cc1c[nH]c2ccccc12)C(=O)N[C@H](CCCN)C(=O)N[C@@H](CCCN)C(=O)NCC(=O)N[C@H](CCCN)C(=O)N[C@@H](Cc1c[nH]c2ccccc12)C(=O)N[C@@H](CO)C(=O)N[C@H](C(=O)NCC(N)=O)[C@@H](C)CC (stereo partly drawn) ({Hexanoyl(4ξ-Me)}-[dN][dY][dW][dOrn][Orn]G[dOrn]WSIG-NH2) : > 32 µg/mL

MIC measured on CCC(C)CCC(=O)N[C@H](CC(N)=O)C(=O)N[C@H](Cc1ccc(O)cc1)C(=O)N[C@H](Cc1c[nH]c2ccccc12)C(=O)N[C@H](CCCN)C(=O)N[C@@H](CCCN)C(=O)NCC(=O)N[C@H](CCCN)C(=O)N[C@@H](Cc1c[nH]c2ccccc12)C(=O)N[C@H](C(=O)N[C@@H](C)C(=O)NCC(=O)N[C@@H](CO)C(N)=O)[C@@H](C)O (stereo partly drawn) ({Hexanoyl(4ξ-Me)}-[dN][dY][dW][dOrn][Orn]G[dOrn]WTAGS-NH2) = > 32 µg/mL

What the record says about CCC(C)CCC(=O)N[C@H](CC(N)=O)C(=O)N[C@H](Cc1ccc(O)cc1)C(=O)N[C@H](Cc1c[nH]c2ccccc12)C(=O)N[C@H](CCCN)C(=O)N[C@@H](CCCN)C(=O)NCC(=O)N[C@H](CCCN)C(=O)N[C@@H](Cc1c[nH]c2ccccc12)C(=O)N[C@@H](C)C(=O)N[C@H](C(=O)NCC(=O)N[C@@H](CO)C(N)=O)[C@@H](C)CC (stereo partly drawn) ({Hexanoyl(4ξ-Me)}-[dN][dY][dW][dOrn][Orn]G[dOrn]WAIGS-NH2) : MIC is > 32 µg/mL

* * *

Field: MIC. Provide a value for each of the compounds that follow.
# Tested on: Klebsiella pneumoniae
# Measurement protocol: Antibacterial activity Klebsiella pneumoniae ATCC 13883 assessed as inhibition of visible bacterial growth incubated for 18 hrs by microbroth dilution assay
# Assay type: functional
*1 amine or outer side, *2 acyl side, *3 side chain or, on linkers, in order; H or OH if unused. Where a SMILES comes first, the peptide text is derived from it. [ ]: non-standard residue; d: D form. The star is where a group is joined. ξ: configuration not given here. X1 = C[C@@H](N=[N+]=[N-])[C@H](N[*:1])C(=O)[*:2]; Octanoyl(7-Me) = CC(C)CCCCCC(=O)*; Hexanoyl(4ξ-Me) = CCC(C)CCC(=O)*; dOrn = NCCC[C@@H](N)C(=O)O; Orn = NCCC[C@H](N)C(=O)O
Just the number in µg/mL, nothing appended.

According to the records, this compound CCC(C)CCC(=O)N[C@H](CC(N)=O)C(=O)N[C@H](Cc1ccc(O)cc1)C(=O)N[C@H](Cc1c[nH]c2ccccc12)C(=O)N[C@H](CCCN)C(=O)N[C@@H](CCCN)C(=O)NCC(=O)N[C@H](CCCN)C(=O)N[C@@H](Cc1c[nH]c2ccccc12)C(=O)N[C@@H](C)C(=O)N[C@H](C(=O)NCC(=O)N[C@@H](CO)C(N)=O)[C@@H](C)CC (some centres undefined) ({Hexanoyl(4ξ-Me)}-[dN][dY][dW][dOrn][Orn]G[dOrn]WAIGS-NH2) displays MIC of 16

Lab book: MIC of CC[C@H](C)[C@H](NC(=O)[C@@H](NC(=O)[C@H](Cc1c[nH]c2ccccc12)NC(=O)[C@@H](CCCN)NC(=O)CNC(=O)[C@H](CCCN)NC(=O)[C@@H](CCCN)NC(=O)[C@@H](Cc1c[nH]c2ccccc12)NC(=O)[C@@H](Cc1ccc(O)cc1)NC(=O)[C@@H](CO)NC(=O)CCCCCC(C)C)[C@@H](C)N=[N+]=[N-])C(=O)N[C@@H](CC(N)=O)C(=O)NCC(=O)NCC(N)=O ({Octanoyl(7-Me)}-[dS][dY][dW][dOrn][Orn]G[dOrn]W[X1]INGG-NH2) noted as 4
